Cited source: patent US20240148821A1

Please provide measured pIC50 for the entries that follow.
Molecular target: protein-protein interaction between Kras and SOS1 (biotin-tagged human Kras loaded with GDP, His-tagged human SOS1) (Homo sapiens (Human), UniProt P01116, G12D)
Assay: Protein-protein interaction inhibition between Kras and SOS1 (KrasG12D-SOS PPI) using AlphaScreen
Assay type: biochemical
Conditions: AlphaScreen; biotin-tagged human Kras loaded with GDP, His-tagged human SOS1; read-out: KRAS G12D-SOS PPI IC50
Bridge positions count the residues as written; N and C are the ends. Square brackets hold non-standard residues; d marks the D form. Peptide text beside a SMILES is read from it. * marks the point of attachment. hPhe(3-Cl-4-CF3) = N[C@@H](CCc1ccc(C(F)(F)F)c(Cl)c1)C(=O)O; NMePhe(4-CF3) = CN[C@@H](Cc1ccc(C(F)(F)F)cc1)C(=O)O; NMePhe(4-Me) = CN[C@@H](Cc1ccc(C)cc1)C(=O)O; NMeCha = CN[C@@H](CC1CCCCC1)C(=O)O; NEtLeu = CCN[C@@H](CC(C)C)C(=O)O; NMeI = CC[C@H](C)[C@H](NC)C(=O)O; NMeD = CN[C@@H](CC(=O)O)C(=O)O; NMeL = CN[C@@H](CC(C)C)C(=O)O; NMeNle = CCCC[C@H](NC)C(=O)O; NMeC = CN[C@@H](CS)C(=O)O; NMeS = CN[C@@H](CO)C(=O)O; Morpholide = C1CN(*)CCO1; NMeA = CN[C@@H](C)C(=O)O; Piperidide = C1CCN(*)CC1; Ac5c = NC1(C(=O)O)CCCC1; Aze = O=C(O)[C@@H]1CCN1; Cyclobutyl = C1CC(*)C1; Sar = CNCC(=O)O
One number for each entry, as −log10 of the molar value.

Please look at the items below and tell me pIC50 for each one, in order.
1. CC[C@H](C)[C@@H]1NC(=O)[C@H](CC(C)C)N(C)C(=O)CSC[C@@H](C(=O)N(C)C)N(C)C(=O)[C@H]([C@@H](C)CC)N(C)C(=O)C2(CCCC2)NC(=O)[C@@H]2CCCN2C(=O)[C@H](CCc2ccc(C(F)(F)F)c(Cl)c2)NC(=O)CN(C)C(=O)[C@H](Cc2ccc(C)cc2)N(C)C(=O)CN(C)C(=O)CN(C)C1=O [Compound 2178] ({CH2CO}-[NMeL]I[Sar][Sar][NMePhe(4-Me)][Sar][hPhe(3-Cl-4-CF3)]P[Ac5c][NMeI][NMeC]-NMe2; thioether N-11)
2. CC[C@H](C)[C@@H]1NC(=O)[C@H](CC(C)C)N(CC)C(=O)C[C@@H](C(=O)N2CCOCC2)N(C)C(=O)[C@H]([C@@H](C)CC)N(C)C(=O)C2(CCCC2)NC(=O)[C@@H]2CCCN2C(=O)[C@H](CCc2ccc(C(F)(F)F)c(Cl)c2)NC(=O)CN(C)C(=O)[C@H](Cc2ccc(C(F)(F)F)cc2)N(C)C(=O)[C@@H]2CCN2C(=O)[C@H](C)NC1=O [Compound 1233] ([NEtLeu]IA[Aze][NMePhe(4-CF3)][Sar][hPhe(3-Cl-4-CF3)]P[Ac5c][NMeI][NMeD]-Morpholide; lactam N-11)

1. 6.80
2. 8.60

Please look at the items below and tell me pIC50 for each one, in order.
1. CC[C@H](C)[C@@H]1NC(=O)[C@H](CC(C)C)N(C)C(=O)C[C@@H](C(=O)N2CCCCC2)N(C)C(=O)[C@H]([C@@H](C)CC)N(C)C(=O)C2(CCCC2)NC(=O)[C@@H]2CCCN2C(=O)[C@H](CCc2ccc(C(F)(F)F)c(Cl)c2)NC(=O)CN(C)C(=O)[C@H](COC2CCC2)N(C)C(=O)[C@@H]2CCN2C(=O)[C@H](C)N(C)C1=O [Compound 885] ([NMeL]I[NMeA][Aze][NMeS](Cyclobutyl)[Sar][hPhe(3-Cl-4-CF3)]P[Ac5c][NMeI][NMeD]-Piperidide; lactam N-11)
2. CCCC[C@H]1C(=O)N(C)[C@H](C(=O)N2CCCCC2)CC(=O)N(C)[C@@H](CC(C)C)C(=O)N[C@@H]([C@@H](C)CC)C(=O)N(C)[C@@H](C)C(=O)N2CC[C@H]2C(=O)N(C)[C@@H](CC2CCCCC2)C(=O)N(C)CC(=O)N[C@@H](CCc2ccc(C(F)(F)F)c(Cl)c2)C(=O)N2CCC[C@H]2C(=O)NC2(CCCC2)C(=O)N1C [Compound 1859] ([NMeL]I[NMeA][Aze][NMeCha][Sar][hPhe(3-Cl-4-CF3)]P[Ac5c][NMeNle][NMeD]-Piperidide; lactam N-11)

[8.72, 7.82]

* * *

Molecular target: protein-protein interaction between Kras and SOS1 (biotin-tagged human Kras loaded with GDP, His-tagged human SOS1) (Homo sapiens (Human), UniProt P01116, G12D)
Test: Protein-protein interaction inhibition between Kras and SOS1 (KrasG12D-SOS PPI) using AlphaScreen
Type: biochemical
Settings: AlphaScreen; biotin-tagged human Kras loaded with GDP, His-tagged human SOS1; read-out: KRAS G12D-SOS PPI IC50
Bridge positions count the residues as written; N and C are the ends. Square brackets hold non-standard residues; d marks the D form. Peptide text beside a SMILES is read from it. * marks the point of attachment. hPhe(3-Cl-4-CF3) = N[C@@H](CCc1ccc(C(F)(F)F)c(Cl)c1)C(=O)O; NMeCha = CN[C@@H](CC1CCCCC1)C(=O)O; Hyp = O=C(O)[C@@H]1C[C@@H](O)CN1; NMeD = CN[C@@H](CC(=O)O)C(=O)O; NMeL = CN[C@@H](CC(C)C)C(=O)O; Morpholide = C1CN(*)CCO1; Ac5c = NC1(C(=O)O)CCCC1; Sar = CNCC(=O)O
Quantity measured: pIC50
Answers are plain numbers, as −log10 of the molar value.

Value of measured pIC50 for the entry CCO[C@@H]1C[C@H]2C(=O)NC3(CCCC3)C(=O)N(C)[C@@H](CC(C)C)C(=O)N(C)[C@H](C(=O)N3CCOCC3)CC(=O)N(C)[C@@H](CC(C)C)C(=O)N[C@@H]([C@@H](C)CC)C(=O)N(C)CC(=O)N(C)CC(=O)N(C)[C@@H](CC3CCCCC3)C(=O)N(C)CC(=O)N[C@@H](CCc3ccc(C(F)(F)F)c(Cl)c3)C(=O)N2C1 [Compound 1785] ([NMeL]I[Sar][Sar][NMeCha][Sar][hPhe(3-Cl-4-CF3)][Hyp](Et)[Ac5c][NMeL][NMeD]-Morpholide; lactam N-11) : 9.35

* * *

Target: protein-protein interaction between Kras and SOS1 (biotin-tagged human Kras loaded with GDP, His-tagged human SOS1) (Homo sapiens (Human), UniProt P01116, G12D)
Experiment: Protein-protein interaction inhibition between Kras and SOS1 (KrasG12D-SOS PPI) using AlphaScreen;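 note: kras produced in E. coli, Ni-coupled donor beads and streptavidin acceptor beads, excitation 680 nm with emission detected at 520–620 nm via singlet oxygen transfer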
Format: biochemical
Settings: AlphaScreen; biotin-tagged human Kras loaded with GDP, His-tagged human SOS1; read-out: KRAS G12D-SOS PPI IC50
Numbered stars: 1 amine (or outer) side, 2 acyl side, 3 side chain; on linkers, the order of the positions; unused ones are H or OH. Bridge positions count the residues as written; N and C are the ends. Square brackets hold non-standard residues; d marks the D form. Peptide text beside a SMILES is read from it. * marks the point of attachment. hPhe(3-Cl-4-CF3) = N[C@@H](CCc1ccc(C(F)(F)F)c(Cl)c1)C(=O)O; dβ3h(hPhe) = O=C(C[C@@H](CCc1ccccc1)N[*:1])[*:2]; NMePhe(4-Me) = CN[C@@H](Cc1ccc(C)cc1)C(=O)O; NMeAla(cPent) = CN[C@@H](CC1CCCC1)C(=O)O; NMeGly(cPent) = CN[C@H](C(=O)O)C1CCCC1; NMeCha = CN[C@@H](CC1CCCCC1)C(=O)O; NMeI = CC[C@H](C)[C@H](NC)C(=O)O; NMeD = CN[C@@H](CC(=O)O)C(=O)O; NMeL = CN[C@@H](CC(C)C)C(=O)O; Azetidin(1-yl) = C1CN(*)C1; NMeA = CN[C@@H](C)C(=O)O; Ac5c = NC1(C(=O)O)CCCC1; Aze = O=C(O)[C@@H]1CCN1; Sar = CNCC(=O)O
Quantity measured: IC50 (nM)
Numbers only, in nM.

# Compound, Result number
data = [
    ("CC[C@H](C)[C@@H]1NC(=O)[C@H](CC(C)C)N(C)C(=O)C[C@@H](CCc2ccccc2)NC(=O)[C@H]([C@@H](C)CC)N(C)C(=O)C2(CCCC2)NC(=O)[C@@H]2CCCN2C(=O)[C@H](CCc2ccc(C(F)(F)F)c(Cl)c2)NC(=O)CN(C)C(=O)[C@H](Cc2ccc(C)cc2)N(C)C(=O)[C@@H]2CCN2C(=O)[C@H](C)N(C)C1=O [Compound 1874] (cyclo([Ac5c][NMeI][dβ3h(hPhe)][NMeL]I[NMeA][Aze][NMePhe(4-Me)][Sar][hPhe(3-Cl-4-CF3)]P))", 400),
]

Kindly consider the entry below.
Value of measured IC50 for the entry CC[C@H](C)[C@@H]1NC(=O)[C@H](CC2CCCC2)N(C)C(=O)C[C@@H](C(=O)N2CCC2)N(C)C(=O)[C@H](C2CCCC2)N(C)C(=O)C2(CCCC2)NC(=O)[C@@H]2CCCN2C(=O)[C@H](CCc2ccc(C(F)(F)F)c(Cl)c2)NC(=O)CN(C)C(=O)[C@H](CC2CCCCC2)N(C)C(=O)[C@@H]2CCN2C(=O)[C@H](C)NC1=O [Compound 921] ([NMeAla(cPent)]IA[Aze][NMeCha][Sar][hPhe(3-Cl-4-CF3)]P[Ac5c][NMeGly(cPent)][NMeD]-{Azetidin(1-yl)}; lactam N-11) : 1.1
